- study.system: SpHof1
- procedure.details: SPOT peptide array binding signal intensity (averaged, normalized) (arbitrary units (background-subtracted, floor 0; scale differs between SH3 domains)); higher = stronger binding of the SH3 domain to the peptide
Answer each item with its documented SPOT peptide array binding signal intensity.
Give a plain numeric answer without units written out.

-- ask I'd like to know its SPOT peptide array binding signal intensity. The binder in question is "RKNRAPPQRPRFNRD"
-- reply 285

-- ask "VFQFQMPTTPISTKM" , same question.
-- reply 52.5

-- ask Again, but for "ISNFVPPNLPMRRFK"
-- reply 51.8

-- ask Try "RRGPAPPPPPRASRP" next.
-- reply 52

-- ask Item: "RRLRDKYKLPIVDAD"
-- reply 54.5
